# ASSAY TARGET: Proliferating Cell Nuclear Antigen (PCNA), human (human, homotrimeric ring; GlySerHis tag remnant before Met1 left out; 2H/15N(/13C) labelled for NMR, natural abundance for ITC)
# Sequence (chain, as listed by the source): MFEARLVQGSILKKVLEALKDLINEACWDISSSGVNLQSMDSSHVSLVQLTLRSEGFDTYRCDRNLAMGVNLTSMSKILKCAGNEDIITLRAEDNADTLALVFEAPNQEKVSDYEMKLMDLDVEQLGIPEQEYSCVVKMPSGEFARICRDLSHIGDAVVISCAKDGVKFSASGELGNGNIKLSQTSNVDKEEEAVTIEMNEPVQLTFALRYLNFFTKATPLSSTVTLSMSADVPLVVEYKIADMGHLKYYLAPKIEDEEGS
# TEST PROTOCOL: ITC; PCNA (11.2–13.4 µM protomers) in the cell titrated with peptide (117 µM p21^20, 363 p21^12); PBS pH 7.0, 35°C; single set of identical sites
# CONDITION DETAILS: both partners purified
pKd: −log10 of the molar value.
PROPERTY MEASURED: pKd

1) KRRQTSMTDFYH (source: lyophilized peptide) [p21 fragment 141-152 (p21^12), shorter PIP-box peptide of the Cyclin-dependent kinase inhibitor 1]: 5.96
